The measured values listed here are drawn from patent US7250440B2.

Catalogue of compounds with associated melting point

The following compounds have reported results that may help.
* Cc1c(/C=N/O)c2ccccc2n1-c1ccc(O)c(F)c1 | 182 to 184 °C
* Cc1c(/C=N/O)c2cc(Cl)ccc2n1-c1ccc(O)cc1 | 212 to 213 °C
* Cc1c(/C=N/O)c2cc(Br)ccc2n1-c1ccc(O)cc1 | 209 to 211 °C

Quick note, melting point for Cc1c(/C=N/O)c2ccccc2n1-c1ccc(O)cc1 landed at 171 to 173 °C

Quick note, melting point for Cc1c(/C=N/O)c2cc(F)ccc2n1-c1ccc(O)cc1 landed at 162 to 163 °C

Quick note, melting point for O/N=C1\CCCc2c1c1ccccc1n2-c1ccc(O)cc1 landed at 227 to 229 °C

Quick note, melting point for O/N=C/c1cn(-c2ccc(O)cc2)c2ccccc12 landed at 95 to 97 °C

* * *

test target: human ERα (Homo sapiens)
Sequence (P03372 311-547 limits assumed): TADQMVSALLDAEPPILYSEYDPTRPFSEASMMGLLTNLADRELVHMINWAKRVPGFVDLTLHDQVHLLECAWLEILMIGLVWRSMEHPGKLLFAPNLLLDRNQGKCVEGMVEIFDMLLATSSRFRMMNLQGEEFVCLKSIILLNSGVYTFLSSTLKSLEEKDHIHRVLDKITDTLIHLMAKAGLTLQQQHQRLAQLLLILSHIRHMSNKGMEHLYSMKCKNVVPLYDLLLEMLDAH
test: Competition with [3H]-17β-estradiol for binding to the ERα ligand binding domain
condition summary: crude E. coli lysate expressing human ERα ligand binding domain; 2 nM [3H]-17β-estradiol; 5-15 hours at room temperature
Protocol: Representative examples of the invention were evaluated for their ability to compete with 17β-estradiol for both ERα and ERβ. This test procedure provides the methodology for one to determine whether a particular compound binds to the estrogen receptor (and is therefore “estrogenic”) and whether there is selectivity for ERα or ERβ. […] After between 5 and 15 hours at room temperature, the plates were washed with DPBS/1 mM EDTA and bound radioactivity determined by liquid scintillation counting.
property name: pIC50
Please treat pIC50 as minus the base-10 logarithm of the molar concentration.

- Cc1c(/C=N/O)c2cc(Cl)ccc2n1-c1ccc(O)cc1: 6.84
- O/N=C1\CCCc2c1c1ccccc1n2-c1ccc(O)cc1: 6.82
- Cc1c(/C=N/O)c2cc(F)ccc2n1-c1ccc(O)cc1: 7.04

// next item, pIC50 requested
Quick note, pIC50 for Cc1c(/C=N/O)c2cc(Br)ccc2n1-c1ccc(O)cc1 landed at 6.63

* * *

Catalogue of compounds with associated pIC50
test target: human ERβ (Homo sapiens)
Construct: made in house; host or cells: E. coli
Sequence (Q92731 264-498 limits assumed): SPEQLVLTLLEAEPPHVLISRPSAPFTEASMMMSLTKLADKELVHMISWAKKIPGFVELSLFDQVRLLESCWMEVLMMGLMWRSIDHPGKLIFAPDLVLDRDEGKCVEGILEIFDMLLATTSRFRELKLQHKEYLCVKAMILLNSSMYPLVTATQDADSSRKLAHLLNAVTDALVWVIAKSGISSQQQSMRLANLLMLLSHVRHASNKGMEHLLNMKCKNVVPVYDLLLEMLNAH
test: Competition with [3H]-17β-estradiol for binding to the ERβ ligand binding domain
Please treat pIC50 as minus the base-10 logarithm of the molar concentration.

The following compounds have reported results that may help.
- Cc1c(/C=N/O)c2cc(Br)ccc2n1-c1ccc(O)cc1 [Example 7]: 7.03
- Cc1c(/C=N/O)c2cc(Cl)ccc2n1-c1ccc(O)cc1 [Example 6]: 7.54
- Cc1c(/C=N/O)c2cc(F)ccc2n1-c1ccc(O)cc1 [Example 5]: 8.21

// next item, pIC50 requested
Quick note, pIC50 for O/N=C1\CCCc2c1c1ccccc1n2-c1ccc(O)cc1 [Example 8] landed at 8.00
